- System: NCI-H23 lung
- Assay Overview: NCI-60 one-dose screen, 48 h (100 = growth as untreated, 0 = no growth, -100 = all killed)
- Condition Description: 10 µM unless noted
This is part of a sample that, as a whole, favours compounds with a hit. Of some 83,000 tested, about 20% had one in any assay.
Measured Parameter: growth (%)
Enter your answer as a number in %; do not include the unit.

O=C(O)c1ccc(CO)o1 = 110
N#C/C=C(\c1ccc([N+](=O)[O-])cc1)n1nnc2cc(Cl)c(Cl)cc21 = 40.8
Cc1cnc(Nc2ccc(N3CCN(C)CC3)cc2)nc1Nc1ccc(Cl)c(NS(=O)(=O)C(C)(C)C)c1 = 18.9
CN(C)S(=O)(=O)n1cnc([C@@H]2[C@@H]3C(=O)OC[C@@H]3C[C@]23N=CN(Cc2ccccc2)C3=O)c1 = 128
Cc1c2c(cn1Cc1ccccc1)CCc1cn[nH]c1-2 = 89.2

Find the recorded growth belonging to OCCCCc1nccc2c1[nH]c1ccccc12 and report it.
98.8

Find the recorded growth belonging to Nc1c(-c2nc3ccc(Br)cc3c(=O)[nH]2)nnn1-c1ccccc1 and report it.
82.6

Find the recorded growth belonging to O=C(CCc1nc(-c2cccc(Cl)c2)no1)Nc1ccccn1 and report it.
89.2

Find the recorded growth belonging to CCCCCCNc1cc(C)nc2ccc(OC)cc12 and report it.
52.7

Find the recorded growth belonging to CCOC(=O)c1c(C)nc2c(c1N)/C(=C/c1cc(OC)c(OC)c(OC)c1)C(=O)N2c1ccc(OC)cc1 and report it.
78.8

Find the recorded growth belonging to CC(C)n1nc(C#Cc2cccc3cc(-c4cccc(C(F)(F)F)c4)ncc23)c2c(N)ncnc21 and report it.
78.6

---

- System: UACC-62 melanoma
- Assay Overview: NCI-60 one-dose screen, 48 h
- Condition Description: 10 µM unless noted
The panel holds about 83,000 compounds, 20% with a hit somewhere; the sample as a whole holds those more often. Activity calls are given as the source filed them. How the source made its calls: active means growth percent below 10; inactive means the rest.
Please state which outcome applies, choosing from YES (active), NO (inactive)

Worked examples follow.
CC(=O)OCCc1ccccc1 = NO
NS(=O)(=O)Oc1ccc(-c2sc3cc(O)ccc3c2C(=O)c2ccc(OCCN3CCCCC3)cc2)cc1 = YES
CN(C)CCN1C(=O)c2cccc3c(-c4ccc(-c5nc6c7ccccc7c7ccccc7c6[nH]5)cc4)ccc(c23)C1=O = NO
CN(C)c1ccc2cc(-c3ccccc3F)c(N)nc2c1 = NO
CCOC(=O)Cc1csc2nc(-c3ccccc3)nn12 = NO
Cc1cc(N(CCCNc2ccnc3cc(Cl)ccc23)Cc2ccccn2)nc(N2CCOCC2)n1 = NO
N#Cc1c(-c2ccc(C(F)(F)F)cc2)cc(N2CC(O)C2)n2c1nc1ccccc12 = NO
O=C(Nc1cccc2[nH]c(C(F)(F)F)nc12)c1cc(Cl)ccc1Cl = NO
COc1ccc(NC(=O)C(=O)c2c[nH]c3ccc(F)cc23)cc1 = NO

As a next step, examine the compound that follows.
Just curious, what result did Cc1ccc(S(=O)(=O)N(CC[C@@H]2C[C@H]2c2cc3ccccc3o2)C(=O)NC2CCCCC2)cc1 get here?
NO

---

- Tested on: SW-620 colon
- Assay Overview: NCI-60 one-dose screen, 48 h (100 = growth as untreated, 0 = no growth, -100 = all killed)
- Condition Description: 10 µM unless noted
This is part of a sample that, as a whole, favours compounds with a hit. Of some 83,000 tested, about 20% had one in any assay.
Everything with growth lower than 90% is 0.0; everything else, including exactly 90%, is 1.0.

Worked examples follow.
COc1cc2c(O)n(CCCn3ccnc3)c3c4cnc5cccc(c(=O)c3c2cc1OC)c54 = 0.0
C[C@H]1[C@H]2C3=CC[C@@H]4[C@@]5(C)C/C(=C/c6ccncc6)C(=O)C(C)(C)[C@@H]5CC[C@@]4(C)[C@]3(C)CC[C@@]2(C(=O)N2CCN(C)CC2)CC[C@@H]1C = 0.0
O=C1Nc2ccccc2SC1C1SC(=S)N(Cc2ccccc2)C1=O (stereo not drawn) = 0.0
CCOC(=O)c1c(C)[nH]c(C(=O)CCC(=O)OC)c1C = 1.0
O=C(CC1Sc2ccccc2NC1=O)NNc1ccc(F)cc1 (stereo not drawn) = 1.0
CC(=O)Nc1cccc(C2=CC(c3ccc(C)cc3)n3ncnc3N2)c1 (stereo not drawn) = 1.0
CN1C[C@@H](c2ccc(Cl)cc2)[C@]2(NC(=S)N(c3ccccc3)C2=O)[C@@]12C(=O)NC1C=CC(Br)=C[C@H]12 (stereo partly drawn) = 0.0
O=C1c2ccccc2C2(c3ccc(O)cc3)c3ccccc3Oc3cccc1c32 (stereo not drawn) = 0.0

Could you please find out whether CN(C)CCN1C(=O)c2cccc3c(-c4ccc(-c5nc6c7ccccc7c7ccccc7c6[nH]5)cc4)ccc(c23)C1=O has growth that meets 90% or exceeds it?
0.0

Could you please find out whether COc1cc2oc(-c3cccc(C(=O)Nc4ccc(C#N)cc4)c3)cc(=O)c2c(O)c1OC has growth that meets 90% or exceeds it?
0.0

Could you please find out whether CNCCNc1nc2ccccc2c2c(=O)c3cc(F)ccc3oc12 has growth that meets 90% or exceeds it?
0.0

Data origin: PubChem BioAssay (NCI)
